# System: Bacillus subtilis
# assay-details: cleaved RNA product abundance (RNA/gDNA barcode ratio) relative to median wild-type variant (ratio to wild type); higher = more accumulation of the downstream cleavage product
# details: experiment (reporter, strain, medium): exp 4a: truncated aprE reporter, strain BJT201 with 2% xylose (RNase J1 expressed); cleavage site: cggR-gapA (positions -7 to +36 mutated)
recorded-metric: cleaved RNA product abundance
Just the number, please, no unit after it.

# return cleaved RNA product abundance for ACAGACGAAGGAGCCGCAAAGAAGTTATTAAGGGATGAAAAATCCCCCAATATAAATATCTCTCACTTATTTAAA , test system: Bacillus subtilis
0.184

# return cleaved RNA product abundance for ACAGACGAAGGAGCCGCAAAGAAGTTATTAAGGGATGAATAATCCACCAATATAAATATCTCTCACTTATTTAAA , test system: Bacillus subtilis
0.142

# return cleaved RNA product abundance for ACAGACGAAGGAGCCGCAAAGAAGTTATTAAGGGATGAATAATCCCTCAATATAAAAATCACTCACTTATTTAAA , test system: Bacillus subtilis
1.16

# return cleaved RNA product abundance for ACAGACGAAGGAGCCGCAAAGAAGTTATTAAGGGATGAATAATCCCTCTATATACATATCTCTCACTTATTTAAA , test system: Bacillus subtilis
0.226

# return cleaved RNA product abundance for ACAGACGAAGGAGCCGCAAAGACGTTATTAAGGGATGATTAATCCCTCAATATAAATATCTCTCACTTATTTAAA , test system: Bacillus subtilis
0.779

# return cleaved RNA product abundance for ACAGACGAAGGAGCCGCAAAGACGTTATTAAGGGATTAATAATCCCTCAATATAAATATCTCTCACTTATTTAAA , test system: Bacillus subtilis
0.857

# return cleaved RNA product abundance for ACAGACGAAGGAGCCGCAAAGAAGTTATTAAGGCATGACTAATCCCTCAATATAAATATCTCTCACTTATTTAAA , test system: Bacillus subtilis
0.102

====

# Test system: Bacillus subtilis
# assay-details: cleaved RNA product abundance (RNA/gDNA barcode ratio) relative to median wild-type variant (ratio to wild type); higher = more accumulation of the downstream cleavage product
# details: experiment (reporter, strain, medium): exp 8a: truncated aprE reporter, strain BJT201 with 2% xylose (RNase J1 expressed); cleavage site: glnRA (positions -5 to +31 mutated)
recorded-metric: cleaved RNA product abundance
Just the number, please, no unit after it.

Retrieve cleaved RNA product abundance measured for CGACATGTCCCGCTTCTTTCATTAATCCGTTAGCAACTGAGTTGCTATATACATTTACCTTTTAAGAGGAGGAAT and print it.
0.261

Retrieve cleaved RNA product abundance measured for CGACATGTCCCGCTTCTTTCATTAATCCGTAAGCAACTTTTTTGCTATATACATTTACCTTTTAAGAGGAGGAAT and print it.
0.82

Retrieve cleaved RNA product abundance measured for CGACATGTCCCGCTTCTTTCATTAATCCGTTAGCAACTGTTTTGCTATATAAAATTACCTTTTAAGAGGAGGAAT and print it.
0.606

Retrieve cleaved RNA product abundance measured for CGACATGTCCCGCTTCTTTCATTAATCCGTTAGCAACTGTTTTGCTATATACATTAATCTTTTAAGAGGAGGAAT and print it.
1.54

====

Kindly state cleaved RNA product abundance for each of the entries shown.
# Tested on: Bacillus subtilis
# assay-details: cleaved RNA product abundance (RNA/gDNA barcode ratio) relative to median wild-type variant (ratio to wild type); higher = more accumulation of the downstream cleavage product
# details: experiment (reporter, strain, medium): exp 2b: truncated aprE reporter, strain BJT200; cleavage site: cggR-gapA (positions -7 to +36 mutated)
Just the number, please, no unit after it.

# return cleaved RNA product abundance for ACAGACGAAGGAGCCGCAAAGAAGTTATTATGGGAAGAATAATCCCTCAATATAAATATCTCTCACTTATTTAAA , test system: Bacillus subtilis
0.159

# return cleaved RNA product abundance for ACAGACGAAGGAGCCGCAAAGAAGTTATTAAGGAATGAATAATCCCTCACTATAAATATCTCTCACTTATTTAAA , test system: Bacillus subtilis
0.0964

# return cleaved RNA product abundance for ACAGACGAAGGAGCCGCAAAGAAGTTATTAAGTGATGAATAATTCCTCAATATAAATATCTCTCACTTATTTAAA , test system: Bacillus subtilis
0.0685

# return cleaved RNA product abundance for ACAGACGAAGGAGCCGCAAAGAAGTTATTAAGGGATCAATAATCCCTCAATATAAATATCTCTCACTTATTTAAA , test system: Bacillus subtilis
0.832
